# assay system: UniProt C6KTA4
# protocol notes: IC50 for competition of protein binding to Kinobeads;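 further: native unpurified kinases from lysate captured on beads bearing immobilized kinase inhibitors, with bead-bound kinases quantified by mass spectrometry across compound doses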
# recorded conditions: assay detail: Kinobeads competition in P. falciparum blood-stage lysate
pIC50: −log10 of the molar value.

# compound, assay system, pIC50
measured = [
    ("O=c1[nH]c2ccc(Cl)cc2c(NC2CN3CCC2CC3)c1-c1nc2ccccc2[nH]1 (stereo unspecified)", "UniProt C6KTA4", "< 4.70"),
]

---

# assay system: UniProt Q8I535
# protocol notes: IC50 for competition of protein binding to Kinobeads
# recorded conditions: assay detail: Kinobeads competition in P. falciparum blood-stage lysate

# molecule, IC50
rows = [
    ("O=c1[nH]c2ccc(Cl)cc2c(NC2CN3CCC2CC3)c1-c1nc2ccccc2[nH]1 (stereo unspecified)", "< 0.0823 µM"),
]

Source listed as the supplement of paper PMC13386468.
